Listed below: GI50 values for each entry.
tested on: EKVX; experiment: NCI tumour cell line growth inhibition, 48 h
The source made the active and inactive calls. Rule as the data show it: active = GI50 up to about 1.1 µM and inactive = higher.
reported.metric: GI50

> print(dat)
                                    molecule  measured.on  reported.metric            obs.value
 1  COC(=O)C(C(=O)C(=O)Nc1nc2ccc([N+](=O)[O-])cc2s1)c1nc2ccc(Cl)cc2nc1O (configuration not stated)         EKVX             GI50  > 100 µM (inactive)
 2  O=[N+]([O-])c1ccc(C2=NOC(c3ccccc3F)N2C23CC4CC(CC(C4)C2)C3)cc1 (configuration not stated)         EKVX             GI50  > 100 µM (inactive)
 3  CSC1(SC)N2Cc3ccccc3N=C2C1(c1ccccc1)c1ccccc1         EKVX             GI50   6.67 µM (inactive)
 4  O=C(O[C@@H](/C=C/c1ccccc1)P1(=O)N(Cc2ccccc2)[C@@H]2CCCC[C@H]2N1Cc1ccccc1)c1ccccc1         EKVX             GI50   3.98 µM (inactive)
 5  OC1(CCc2ccccc2)COC(C(F)(F)F)(C(F)(F)F)C1 (configuration not stated)         EKVX             GI50  > 100 µM (inactive)
 6                 COc1cc(=O)oc(/C=C/C=O)c1C         EKVX             GI50   35.7 µM (inactive)
 7  COc1ccc(/C=C2\NC(=S)N(/C=C3\C(=O)Oc4ccccc4C3=O)C2=O)cc1OC         EKVX             GI50   54.5 µM (inactive)
 8         CCCCCCCCOCC1S(=O)(=O)OCCOS1(=O)=O         EKVX             GI50  > 100 µM (inactive)
 9  CCCCCCC1NN(C(C)=O)C(CCCCCC)NN1C(C)=O (configuration not stated)         EKVX             GI50  > 100 µM (inactive)
10         COc1ccc(/C=C/c2cnc3ccccc3n2)cc1OC         EKVX             GI50   63.1 µM (inactive)
11  Cc1ccc(OCC2OC(n3cnc4c(Br)nc(Br)nc43)CC2Oc2ccc(C)cc2)cc1 (configuration not stated)         EKVX             GI50   2.05 µM (inactive)
12  NS(=O)(=O)c1cc2c(cc1Cl)N=C(CCC(=O)O)NS2(=O)=O         EKVX             GI50  > 100 µM (inactive)

----------
tested on: PC-3; test: NCI tumour cell line growth inhibition, 48 h
Activity calls are given as the source filed them. Rule as the data show it: active = GI50 up to about 1.1 µM and inactive = higher.

compound	GI50
CCOC(=O)c1ccc(C(=O)OCC)n1-c1cc2cc(c1)CSCc1cc(cc(-n3c(C(=O)OCC)ccc3C(=O)OCC)c1)CSC2	> 10 µM (inactive)
CC(C)(C)OC(=O)NCCNC(=O)OCc1ccccc1	> 100 µM (inactive)
CN(CC(=O)O)c1ncc2c(n1)-c1ccccc1OC2c1ccccc1 (stereo unspecified)	61.1 µM (inactive)
O=C1c2ccccc2C(=O)c2[nH]c(=O)c(/C=N/Nc3ccc([N+](=O)[O-])cc3)nc21	17.1 µM (inactive)
N#CNC(=N)Nc1ccc(Cl)cc1	> 100 µM (inactive)
CCOC(=O)CCC(NC(=O)Cc1ccc(Nc2nc3cc(F)c(F)cc3nc2C(=O)OCC)cc1)C(=O)OCC (stereo unspecified)	> 100 µM (inactive)
COc1cc(OC)c2c(C)cc(=O)oc2c1	> 100 µM (inactive)
O=C(CCCN1CCC(C(O)c2ccc(F)cc2)CC1)c1ccc(F)cc1 (stereo unspecified)	47.1 µM (inactive)
O=C1/C(=C/c2ccc([N+](=O)[O-])cc2)Sc2scc(-c3cccc([N+](=O)[O-])c3)[n+]21	12.5 µM (inactive)
CC1(C)[C@H](C(=O)O)N2C(=O)[C@@H](NS(=O)(=O)c3ccc([N+](=O)[O-])cc3)[C@H]2S1(=O)=O	> 100 µM (inactive)
COC(=O)C1=CO[C@@H](OC2OC(CO)C(O)C(O)C2O)[C@@H]2[C@H](C)[C@@H](O)[C@@H](O)[C@]12O (stereo partly specified)	> 100 µM (inactive)
Cc1c2cc[n+](C)cc2c(C)c2c1[nH]c1ccccc12	4.83 µM (inactive)
COC1(OC)CC(CO)(COc2cc(Cl)nc(N)n2)C1	> 100 µM (inactive)
CC(C)(C)c1ccc(OCC(=O)O)c(Cl)c1	> 100 µM (inactive)
O=C1c2ccccc2C2(c3ccc(Cl)cc3)N[C@H]3CCCC[C@@H]3N12 (stereo partly specified)	> 100 µM (inactive)
CCOc1cc(C2SCC(=O)N2c2ccc3c(c2)Oc2c(Cl)c4c(c(Cl)c2=N3)Oc2cc(N3C(=O)CSC3c3ccc(O)c(OCC)c3)ccc2N=4)ccc1O (stereo unspecified)	48.6 µM (inactive)
COc1ccc(/C=C/c2cnc3ccccc3n2)cc1OC	33.1 µM (inactive)
NS(=O)(=O)c1cc2c(cc1Cl)N=C(CCC(=O)O)NS2(=O)=O	> 100 µM (inactive)
CC1=NC(C)(C)N(O)C1(C)C	> 100 µM (inactive)
COc1ccc(CCc2ccc(O)c(C(=O)O)c2)cc1OC	> 100 µM (inactive)
O=C(CCCN1CCC2(CC1)CC(=O)N(N1CCCCCC1)C2=O)c1ccc(F)cc1	> 100 µM (inactive)
COCC1OC(N2C(=O)NC(=O)[C@@H]3C=C4CCCCC4=C[C@@H]32)C(OC)C1OC (stereo partly specified)	> 100 µM (inactive)
CC(C)(C)OC(=O)N1CCC2(CC1)C(=O)NCN2c1ccccc1	> 100 µM (inactive)
Clc1ccc(CCn2ccc3ccccc32)c(Cl)c1	> 100 µM (inactive)
COc1ccc(-n2c(C)nc3ccc(NC4OC(COC(C)=O)C(OC(C)=O)C(OC(C)=O)C4OC(C)=O)cc3c2=O)cc1 (stereo unspecified)	> 100 µM (inactive)
CCCCCCCCOCC1S(=O)(=O)OCCOS1(=O)=O	> 100 µM (inactive)

----------
test system: NCI-H23; experiment: NCI tumour cell line growth inhibition, 48 h
Active and inactive are the calls of the source. No stated cut-off is given here; in the data, active = GI50 up to about 1.1 µM and inactive = higher.
Labels: class 1 for active, class 0 for inactive

compound	class.assignment
CCOC(=O)/C(C#N)=C1/Sc2c(ncn(/N=C/c3ccc(OC)cc3)c2=O)N1c1ccccc1	class 0
CC(C)[C@H]1CO[C@@H]2O[C@H](C)CC(=O)N21	class 0
CC1COS(=O)O1 (centres undefined)	class 0
C=C(CCOC)CCC1CCCCC/C1=N\N(C)C (centres undefined)	class 0
Cc1ccc(NC(=O)CCC(CC(=O)C(C)(C)C)=NNC(=O)C(=O)NN)cc1C	class 0
COc1ccc2c(Cc3c4ccccc4cc4ccccc34)cncc2c1O	class 0
CC(C)CNc1nc2ncnc(N)c2[nH]1	class 0
CCCCCCCCOCC1S(=O)(=O)OCCOS1(=O)=O	class 0
CC(=N/NC(=S)N1CCCCC1)/C(=N\NC(=S)N1CCCCC1)c1ccccc1	class 0
CC(=O)c1[nH]c(Nc2ccc(C)cc2)c(C(=S)Nc2ccccc2)c1N	class 0
COc1cc([C@@H]2c3cc4c(cc3[C@@H](Nc3ccc(NC(=O)c5cc(NC(=O)c6cc([N+](=O)[O-])cn6C)cn5C)cc3)[C@H]3COC(=O)[C@H]23)OCO4)cc(OC)c1O	class 1
Cc1ccc(S(=O)(=O)N/N=C2/C3C(CC2(C)C)C2(C)CCCC3(C)C2O)cc1 (centres undefined)	class 0
CC1C(c2cc(C(C)(C)C)c(O)c(C(C)(C)C)c2)c2cc3c(cc2OC1N1CCOCC1)OCO3 (centres undefined)	class 0
NS(=O)(=O)c1cc2c(cc1Cl)N=C(CCC(=O)O)NS2(=O)=O	class 0

----------
tested on: HOP-92; experiment: NCI tumour cell line growth inhibition, 48 h
Active and inactive are the calls of the source. Cut-off read from the data, not from the text of the source: active = GI50 up to about 1.1 µM and inactive = higher.
Catalogue of molecules with associated GI50
reported.metric: GI50

> print(dat)
                                   molecule            obs.value
1                       Cc1ccc2ccc(=O)oc2c1  > 100 µM (inactive)
2  FC(F)(F)c1ccc2c(c1)nc1n2C(c2c(Cl)cccc2Cl)SC1 (stereo not given)   13.6 µM (inactive)
3    CC(C)(C)OC(=O)N[C@H]1CCN(C2CCCCC2)C1=O  > 100 µM (inactive)
4  CC1(C)OC2OC(COC(=O)C(c3ccccc3)c3ccccc3)C3OC(C)(C)OC3C2O1 (stereo not given)   61.8 µM (inactive)
5  COc1ccc2c(Cc3c4ccccc4cc4ccccc34)cncc2c1O   1.81 µM (inactive)

----------
Recorded measurements of GI50, one per entry
tested on: MDA-MB-435; experiment: NCI tumour cell line growth inhibition, 48 h
Activity calls are given as the source filed them. Rule as the data show it: active = GI50 up to about 1.1 µM and inactive = higher.
reported.metric: GI50

compound	obs.value
COC(=O)CCC(C)[C@H]1CCC2C3C(C[C@H](OC(C)=O)[C@@]21C)[C@@]1(C)CCC2(C[C@H]1C[C@H]3OC(C)=O)OOC1(CCCC1)OO2 (stereo not given in full)	29.9 µM (inactive)
C=C(CCOC)CCC1CCCCC/C1=N\N(C)C (stereo not given)	> 100 µM (inactive)
O=c1/c(=C\c2ccccc2)sc2n1C(c1ccccc1)C1(O)CCCCC1N=2 (stereo not given)	> 100 µM (inactive)
C[N+](C)(C)c1ncnc2c1ncn2C1CC(O)C(CO)O1 (stereo not given)	> 100 µM (inactive)
CC12ON(P(=O)(c3ccccc3)c3ccccc3)C(C)(c3ccccc31)c1ccccc12	> 100 µM (inactive)

Data origin: ChEMBL document CHEMBL1201862
